MEASURED ON: monoclonal antibody 3A5.1
EXPERIMENT SUMMARY: Indirect competitive enzyme immunoassay, monoclonal antibody 3A5.1
Assay type: binding, mouse
MEASUREMENT CONDITIONS: MAb 3A5.1, coating antigen I

- MOLECULE: "CC(C)C1(C)N=C(c2nc3ccccc3cc2C(=O)O)NC1=O (stereo not shown)"
  MEASURED ON: "monoclonal antibody 3A5.1"
  I50 (half-maximal inhibition): "800 ppb (ng/mL)"
- MOLECULE: "CC(C)C1(C)N=C(c2ncccc2C(=O)O)NC1=O (stereo not shown)"
  MEASURED ON: "monoclonal antibody 3A5.1"
  I50 (half-maximal inhibition): ">5,000 ppb (ng/mL)"
- MOLECULE: "CCc1cnc(C2=NC(C)(C(C)C)C(=O)N2)c(C(=O)O)c1 (stereo not shown)"
  MEASURED ON: "monoclonal antibody 3A5.1"
  I50 (half-maximal inhibition): "220 ppb (ng/mL)"
- MOLECULE: "Cc1cnc(C2=NC(C)(C(C)C)C(=O)N2)c(C(=O)O)c1 (stereo not shown)"
  MEASURED ON: "monoclonal antibody 3A5.1"
  I50 (half-maximal inhibition): "340 ppb (ng/mL)"
